tested on: PPARg homodimer (NR concentration 180 nM); test: PBM binding z-score (relative to random genomic background probes); higher = stronger binding; sequences stand for … in GC…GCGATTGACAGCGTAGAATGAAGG
observable: PBM binding z-score

-- ask Give the measured PBM binding z-score of TCATATAGGTAAAAGGTGAATGTCGGTGTGGTAA .
-- reply 1.98

-- ask Follow-up item: TTACCAAGGTGAAGGTCGTAGATCCCTCTGTAGA
-- reply -0.867

-- ask Another sequence: CGTCCAAGGTCATAGAAGGTCAGTGAAGACAGAT
-- reply 2.94

-- ask Same question for GCTACTAGTTGAAAGGGCAACCGAATGATTCTCG please.
-- reply 0.922

-- ask Note, next up: GCTTACGGGTCACAGGTTATAGCATGAATAGAAT
-- reply 1.81

-- ask Now try ACTATTAGTTGAGACGAGGGCACCCGATAGGTTG .
-- reply -0.607

-- ask Entry to check: AATACAGGGTCACTAGGCCGGAGTAGGTACGAAT
-- reply 1.34

-- ask Can you handle CTCGAAAGGTCGTGCTCAGGTTAGTATACCAAAC next?
-- reply 2.46

-- ask // next record TAGCCTAGGTCATGGGCCAGTAGACCACGCGAAC
-- reply 0.936

-- ask Same question for CCTTACGGGGCACTCCAGGTTATAGCATCGGAGT please.
-- reply 0.148

-- ask Try the sequence GTACCATGGTGAATAGGTCGTTGATGAGTAGGCG
-- reply 0.352

-- ask Field entry: TCTTGTAGGTCAAGCAGGTTAAGAAAGCCTGAGT
-- reply 1.66

-- ask Same read-out for ATCTCTCGGTAACCAAGTTCAGTGAATGCCGAAC ?
-- reply 0.702

-- ask Queued: ACAGACAGGTGATGAAGGGAACTCAGGCTATCAT
-- reply 0.0738

-- ask Now give it for GATACAGGGTCAAAGCCAGAGTACGCGTATTGAT too.
-- reply 2.25

-- ask # iterate: CATACAGGGTCAGCTAGGCCAGAGAAGGGACGGC
-- reply 1.9

-- ask Please give the result for TGTCAAAATTCAAAGGTAACGTAAGTATCCACAC too.
-- reply 0.821

-- ask Please do the same for ATCGCTAGGTAAAAGTTCAGTGAATCCCGAGGAT as well.
-- reply 0.521

-- ask Another sequence: CCGACTGGGGCATAAAGTTACCATAAGCCAGCCC
-- reply -0.724

-- ask Cool, now ATCTCTAGGTAAAAATTCAGTGAATCCCGAGGAT
-- reply 0.243

-- ask Query TCTTGTAGATCAGAAGGTTAAGAAAGCTGGCCAA next
-- reply 0.201

-- ask Same lookup for CGAACTAGGTGATCCAGGACAGTGAATACATTGA , please.
-- reply 0.425

-- ask TCATATAGGTAAGTGCTAGGTGAAAGTCCGATCT , same question.
-- reply 0.802

-- ask And what about the sequence GCATATAGGTAATACAAGGTGAAGGTCCGATTGT ?
-- reply 0.421

-- ask Item: TCTTGTAGATAAGCAGGTTAAGAAAGCTGGCCAA
-- reply 0.0505

-- ask Please give the result for TCCAGTAGGTTAGGGGCATTCAGAATGGCGTCGA too.
-- reply 1.01

-- ask What about TGAATCAGGTTATAAGATCAGGGAACGTTGCAAA ?
-- reply 2.15e-05

-- ask Same for CCTACTAGGCCATTCAGAGGTCATTGATCATATG
-- reply 2.94

-- ask Proceed to CCAGCCAGGTGAAAGGTAACTCAGTCTGGTACGC
-- reply 1.03

-- ask Please answer likewise for TAGCCTAGGTCCGATCGGGCCAGTATACGCTATA
-- reply -1.58

-- ask Input CCTTACGGGTCACTGACAGGTTATGGCATTTGGA
-- reply 3.61

-- ask Another sequence: GCTCGGAGGACAAGGTCAGAGCATTGTCCGTAGA
-- reply 0.964

-- ask Would you kindly repeat that for CGAACTAGGTCAAAGGTCAAAGTCGAGCCAACCA ?
-- reply 6.9

-- ask Try this sequence next: TGAATGAGGTTATAAGATCAGGGATCGTTGCAAA
-- reply 0.305

-- ask Also check TTACCAAGATGAGCTGAGGTCGTTGATCCAACTC
-- reply 0.0396

-- ask Subsequent entry: CGAAGGAGGGCATGAGTTGATAGCAAATGCCGAT
-- reply 0.352

-- ask Also need TCTCGGAGGACACGAATGTCAGAGCTTTCCAGAG , thanks.
-- reply -0.998

-- ask // repeat for GATACAGGGTCAGCTAGAGGCCAGAGTGTGGAAA and report
-- reply 3.47

-- ask Check CCGACTGGGGCAAGGTTACCCTAACGCACAGCCA too.
-- reply 0.107

-- ask Another: ATCGATAGGTCGACGAGGTGAGTATACACCGTTT
-- reply 0.219

-- ask Now this one: TCGACTAGGTTACCAATGGGGCATTCAGCTTTCT
-- reply 0.845

-- ask Also check GGAACGAGGGCAAGTCGATAGCAGAGTTTGATGG
-- reply -0.162

-- ask Consider next the sequence TCTCGGAGGACACCAAGGTCAGAGCTTTCCAGAG in the same way.
-- reply 1.73

-- ask Would you mind doing TCACGGAGGACACGAAAGGTCAGAGCTCGACATC as well?
-- reply 2.1

-- ask Please do the same for ACTAGTTGGTCAGCTGAGATCACACACAATTCGG as well.
-- reply -0.286

-- ask Query CCAGACAGGTGAGAAGGTAAGTCAGCCTCGATTA next
-- reply 0.826

-- ask Then what about the sequence ATATGTAGGTTAATGGTCATTCAGGTTGGTTCGC ?
-- reply 2.47

-- ask Here is the next sequence: TCATATAGGTAAATGCTAAGTGAAAGTCCGATCT
-- reply 0.521

-- ask How about this sequence: ACAGACAGGTGATCAAGGTAACTCAGGCTATCAT
-- reply 0.161

-- ask Query AGAATGAGGTTTTACGTAGATCAGGGAAGAAAGT next
-- reply 0.322

-- ask What about CGTCCAAGGTTATAGGAGGTCAGTGAAGACAGAT ?
-- reply 3.21
